assay_method_text: VP16 transactivation inhibitors, counter-screen for SRC1 inhibitor project, cell-based, luminescence, high throughput (AID 588824)
study_conditions: cell-based VP16 transactivation luciferase luminescence; at 3.6 µM
Active and inactive are the calls of the source. Cut-off read from the data, not from the text of the source: active = inhibition above about 25%; inactive = the rest.
Respond using exactly one of the listed classes: class 1 (active), class 0 (inactive)

* CC1CC(C)C(=NNC(N)=O)C(C(O)CC2CCC(=O)NC2=O)C1 (centres undefined) | class 0
* COc1cc(NC(=O)c2cccc3c(-c4cccnc4)coc23)cc(OC)c1OC | class 1
* O=C(N/N=C/c1ccc(O)cc1O)/C(=C/c1ccccc1)CCO | class 0
* CC(=O)c1ccc(S(=O)(=O)N2CCN(CCOc3ccc(Br)cc3)CC2)cc1 | class 1
* COc1ccc2cc(/C=N/NC(=O)c3ccc(CN(c4ccc(C)c(C)c4)S(C)(=O)=O)cc3)c(Cl)nc2c1 | class 0

Req: Which outcome was assigned to `Cn1c2c(c(=O)n(C)c1=O)C(C(F)(F)F)(C(F)(F)F)N=C(C1CCCCC1)N2` in this test?
Resp: class 0

Req: What about `COc1ccc(CNc2ncc(-c3ccc(F)cc3)n2C)c2ccccc12` ?
Resp: class 0

Req: What about `CC(C)(C)c1cc(C(=O)N/N=C/c2ccc(O)cc2)n(-c2ccccc2)n1` ?
Resp: class 0

----------
assay_method_text: VP16 transactivation reporter inhibitors, counter-screen for LRH-1 inverse agonist project, cell-based, luminescence, high throughput (AID 651615)
study_conditions: Gal4-VP16 luciferase reporter cells, at 3.6 µM, active compounds read high
In this section, each of the compounds is paired with its reported inhibition.
Note: unit % is implicit; provide only the numeric part.

Some solved entries appear below for comparison.
- Cc1cc(C)c2nc(NC(=O)c3ccc([N+](=O)[O-])o3)sc2c1: -14.5
- Cc1ccc(NC(=O)CSc2nnc(CCCCCNC(=O)OC(C)(C)C)o2)c(C)c1: 4.4
- CCOC(=O)CCCc1ccc(/C(C)=N/NC(N)=S)cc1: 26.4

Req: May I ask what inhibition has been recorded for `CCCc1cc(=O)oc2cc(OCC(=O)NCCc3c[nH]c4ccc(OC)cc34)ccc12` ?
Resp: -23.9

Req: What about `Cc1cccc(-n2ncc3c(N(C)C4CCCCC4)ncnc32)c1` ?
Resp: 29

----------
tgt: Nuclear receptor coactivator 3 (Homo sapiens) (UniProt Q9Y6Q9)
Sequence (Q9Y6Q9 whole entry, looked up): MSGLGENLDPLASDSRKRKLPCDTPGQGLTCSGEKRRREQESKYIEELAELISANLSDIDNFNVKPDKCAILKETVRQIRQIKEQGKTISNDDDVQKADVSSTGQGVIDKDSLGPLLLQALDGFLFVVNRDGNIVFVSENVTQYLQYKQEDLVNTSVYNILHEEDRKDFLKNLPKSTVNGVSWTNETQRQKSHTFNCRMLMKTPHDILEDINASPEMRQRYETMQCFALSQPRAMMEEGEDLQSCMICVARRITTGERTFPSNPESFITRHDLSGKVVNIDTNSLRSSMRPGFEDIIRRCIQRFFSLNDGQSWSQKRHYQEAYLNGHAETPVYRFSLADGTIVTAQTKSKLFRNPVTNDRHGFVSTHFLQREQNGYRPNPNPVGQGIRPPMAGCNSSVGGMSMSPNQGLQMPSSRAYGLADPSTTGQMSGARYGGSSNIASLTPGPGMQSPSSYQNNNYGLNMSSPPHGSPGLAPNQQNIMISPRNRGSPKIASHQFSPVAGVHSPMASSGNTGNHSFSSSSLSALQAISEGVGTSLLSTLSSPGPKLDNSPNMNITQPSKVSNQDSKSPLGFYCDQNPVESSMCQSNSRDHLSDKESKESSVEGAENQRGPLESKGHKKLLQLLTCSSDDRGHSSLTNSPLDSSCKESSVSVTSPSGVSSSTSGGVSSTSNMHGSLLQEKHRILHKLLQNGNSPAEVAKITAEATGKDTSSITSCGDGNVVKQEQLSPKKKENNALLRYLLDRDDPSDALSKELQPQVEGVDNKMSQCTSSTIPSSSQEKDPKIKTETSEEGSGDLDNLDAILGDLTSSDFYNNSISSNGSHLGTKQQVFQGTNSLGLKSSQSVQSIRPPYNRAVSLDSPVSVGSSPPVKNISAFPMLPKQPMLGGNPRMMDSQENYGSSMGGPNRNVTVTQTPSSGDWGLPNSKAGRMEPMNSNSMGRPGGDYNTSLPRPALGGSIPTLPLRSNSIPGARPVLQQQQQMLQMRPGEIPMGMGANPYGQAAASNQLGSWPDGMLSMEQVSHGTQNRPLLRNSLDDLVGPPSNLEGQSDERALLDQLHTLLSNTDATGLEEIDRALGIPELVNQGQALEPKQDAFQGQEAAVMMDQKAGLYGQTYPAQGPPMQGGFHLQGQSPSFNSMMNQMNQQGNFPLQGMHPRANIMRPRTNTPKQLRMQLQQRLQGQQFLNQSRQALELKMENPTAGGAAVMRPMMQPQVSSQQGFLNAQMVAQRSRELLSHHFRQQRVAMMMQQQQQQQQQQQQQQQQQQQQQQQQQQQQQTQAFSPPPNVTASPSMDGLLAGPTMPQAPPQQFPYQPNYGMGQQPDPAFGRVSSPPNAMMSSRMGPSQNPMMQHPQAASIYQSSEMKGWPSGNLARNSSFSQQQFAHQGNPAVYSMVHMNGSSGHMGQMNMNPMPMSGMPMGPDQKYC
assay_method_text: SRC3 coactivator transcriptional activity inhibitors, confirmation, cell-based, luminescence, quadruplicate (AID 588792);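 note: 0% = DMSO treated cells and 100% = gossypol at 36 µM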
study_conditions: HEK293 GAL4-SRC3 luciferase reporter, at 3.6 µM, active compounds read high
In this section, each of the molecules is paired with its reported inhibition.
Note: unit % is implicit; provide only the numeric part.

- Cc1ccc(S(=O)(=O)NC(=O)c2cc(C)n(-c3ccccc3)c2C)cc1: -1.88

Here's the next entry for you.
Req: May I ask what inhibition has been recorded for `O=c1ccc2ccccc2c2ccccc12` ?
Resp: 73.2

----------
tgt: Steroidogenic factor 1 (Homo sapiens)
assay_method_text: SF1 (NR5A1) inverse agonists, counter-screen for LRH-1 inverse agonist project, cell-based, luminescence, high throughput (AID 651614);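 note: cells cotransfected with StAR promoter reporter and SF1 expression vector; 0% = vehicle on cells with receptor and 100% = vehicle on cells lacking receptor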
study_conditions: cell-based SF1 luciferase reporter, at 3.6 µM, active compounds read high
recorded_endpoint: inhibition (%)
Note: unit % is implicit; provide only the numeric part.

Some solved entries appear below for comparison.
- CC1CCc2c(sc(NC(=O)CSc3ncn[nH]3)c2C#N)C1 (configuration not stated): 39.5
- Cc1onc(-c2c(F)cccc2Cl)c1C(=O)Nc1cccc2nsnc12: 49.8
- Cc1ccnc2c1ccc1c(C)ccnc12: 87
- COc1ccc(S(=O)(=O)N2CCOCC2)cc1N=Nc1sc(N)nc1-c1ccccc1: 66.3
- CCN(CC)S(=O)(=O)c1ccc(N2CCOCC2)c(NC(=O)c2[nH]c(C)c(C(C)=O)c2C)c1: 25.8

Req: // map `Cc1onc(-c2c(F)cccc2Cl)c1C(=O)Oc1ccccc1` to recorded inhibition (system: Steroidogenic factor 1 (Homo sapiens))
Resp: 33.8

Req: What about `COc1cccc(-c2cnc3c(NC=O)cc(-c4ccc(S(C)(=O)=O)cc4)cn23)c1` ?
Resp: 52.4

Req: What about `COc1ccc(/C=C/C(=O)c2cc(F)ccc2OC(=O)c2ccccc2C)cc1OC` ?
Resp: 44.9
